# Tested on: T cell activation from 0404(DR14) chimeric MHCII-mice
# Test method notes: In vivo inhibition of T cell activation by co-immunisation, DR14 mice immunised with OVA
# Parameters: species or system mouse; concentration or dose not given beside the values
# Stated conditions: specificity control: response to PPD in the same cell pool, OVA co-immunised mice
Numbered stars: 1 amine (or outer) side, 2 acyl side, 3 side chain; on linkers, the order of the positions; unused ones are H or OH. Square brackets hold non-standard residues; d marks the D form. Peptide text beside a SMILES is read from it. * marks the point of attachment. ξ: configuration not given here. Gly(1-amidinopiperidin-4-yl) = N=C(N)N1CCC([C@H](N)C(=O)O)CC1; X1 = CC(C)c1oc([C@H](CO)N[*:1])nc1C(=O)[*:2]; Pro(3R-Ph) = O=C(O)[C@H]1NCC[C@@H]1c1ccccc1; Tic = O=C(O)[C@@H]1Cc2ccccc2CN1; Cha = N[C@@H](CC1CCCCC1)C(=O)O; NHPhenethyl = c1ccc(CCN*)cc1; ξDisc = O=C(O)C1NCc2ccccc21; Nle = CCCC[C@H](N)C(=O)O
Observable: % Reduction of response to PPD(OVA) (%)
Answers are plain numbers, in %.

Solved cases (2 shown):
Compound | Readout unit | Observed result
CSCC[C@H](NC(=O)[C@@H]1Cc2ccccc2CN1C(=O)[C@@H](NC(=O)[C@H](CC1CCCCC1)NC(C)=O)C1CCN(C(=N)N)CC1)C(=O)N1CC[C@H](c2ccccc2)[C@H]1C(=O)N[C@@H](CO)c1nc(C(=O)N(C)C)c(C(C)C)o1 [Compound P60] (Ac-[Cha][Gly(1-amidinopiperidin-4-yl)][Tic]M[Pro(3R-Ph)][X1]-NMe2) | % | 28.1
CSCC[C@H](NC(=O)C1c2ccccc2CN1C(=O)[C@@H](NC(=O)[C@H](CC1CCCCC1)NC(C)=O)C1CCN(C(=N)N)CC1)C(=O)N1CC[C@H](c2ccccc2)[C@H]1C(=O)N[C@@H](CO)c1nc(C(=O)N(C)C)c(C(C)C)o1 (stereo partly drawn) [Compound P41-1] (Ac-[Cha][Gly(1-amidinopiperidin-4-yl)][ξDisc]M[Pro(3R-Ph)][X1]-NMe2) | % | 21.6

Consider now this further compound.
Which % Reduction of response to PPD(OVA) is listed for CCCC[C@H](NC(=O)[C@@H]1Cc2ccccc2CN1C(=O)[C@H](CCCNC(=N)N)NC(=O)[C@H](CC1CCCCC1)NC(C)=O)C(=O)NCCc1ccccc1 [Compound P82, Ac-Cha-Arg-Tic-Nle-N(H)CH2CH2Ph] (Ac-[Cha]R[Tic][Nle]-NHPhenethyl) ? 5
